Hello, the source for this data is paper PMC6681697, in case you need it.

# ASSAY_SUMMARY: Distribution coefficient (LogD7.4), shake flask method
# Type: physicochemical
# MEASUREMENT_PARAMETERS: n-octanol / phosphate buffer 0.1 M pH 7.4; n = 3
MEASURED_PARAMETER: logD at 2 min

O=C(O)CC[C@H](NC(=O)N[C@@H](CCCCNC(=O)[C@H](Cc1ccc2ccccc2c1)NC(=O)[C@H]1CC[C@H](CNC(=O)Cn2cc(C[n+]3ccc([B-](F)(F)F)cc3)nn2)CC1)C(=O)O)C(=O)O [^18F-6] :: -2.28
C[N+](C)(Cc1cn(Cc2ccc(C(=O)NCCCC[C@H](NC(=O)N[C@@H](CCC(=O)O)C(=O)O)C(=O)O)cn2)nn1)C[B-](F)(F)F [^18F-3] :: -4.01
O=C(O)CC[C@H](NC(=O)N[C@@H](CCCCNC(=O)c1ccc(Cn2cc(C[n+]3ccc([B-](F)(F)F)cc3)nn2)nc1)C(=O)O)C(=O)O [^18F-4] :: -3.34
O=C(O)CCC(NC(=O)NC(CCCCNC(=O)c1ccc([18F])nc1)C(=O)O)C(=O)O (stereo not shown) [^18F-DCFPyL, reference compound] :: -3.12
C[N+](C)(Cc1cn(Cc2ccc(C(=O)NCCCC[C@H](NC(=O)N[C@@H](CCC(=O)O)C(=O)O)C(=O)O)cc2)nn1)C[B-](F)(F)F [^18F-2] :: -4.26
C[N+](C)(Cc1cn(CC(=O)NC[C@H]2CC[C@H](C(=O)N[C@@H](Cc3ccc4ccccc4c3)C(=O)NCCCC[C@H](NC(=O)N[C@@H](CCC(=O)O)C(=O)O)C(=O)O)CC2)nn1)C[B-](F)(F)F [^18F-5] :: -3.52
C[N+](C)(Cc1cn(CC(=O)NCCOCCOCCC(=O)N[C@@H](Cc2ccc3ccccc3c2)C(=O)NCCCC[C@H](NC(=O)N[C@@H](CCC(=O)O)C(=O)O)C(=O)O)nn1)C[B-](F)(F)F [^18F-7] :: -3.24

----------
# System: LNCaP xenografts
# ASSAY_SUMMARY: Ex vivo biodistribution and blocking studies in mice bearing LNCaP xenografts
# MEASUREMENT_PARAMETERS: 1 h blocked (coinjection of DCFPyL 0.5 mg)
MEASURED_PARAMETER: T/K (tumor-to-kidney ratio)

I = C[N+](C)(Cc1cn(CC(=O)NC[C@H]2CC[C@H](C(=O)N[C@@H](Cc3ccc4ccccc4c3)C(=O)NCCCC[C@H](NC(=O)N[C@@H](CCC(=O)O)C(=O)O)C(=O)O)CC2)nn1)C[B-](F)(F)F [^18F-5]
II = O=C(O)CC[C@H](NC(=O)N[C@@H](CCCCNC(=O)c1ccc(Cn2cc(C[n+]3ccc([B-](F)(F)F)cc3)nn2)nc1)C(=O)O)C(=O)O [^18F-4]
III = C[N+](C)(Cc1cn(CC(=O)NCCOCCOCCC(=O)N[C@@H](Cc2ccc3ccccc3c2)C(=O)NCCCC[C@H](NC(=O)N[C@@H](CCC(=O)O)C(=O)O)C(=O)O)nn1)C[B-](F)(F)F [^18F-7]
Input line: Put the entries in order of T/K (tumor-to-kidney ratio), starting with the largest number. Output spec: a listing of the labels in the requested order.
Output line: I, III, II
(I: 0.41, III: 0.28, II: 0.11)

----------
# Test system: LNCaP xenografts
# ASSAY_SUMMARY: Ex vivo biodistribution and blocking studies in mice bearing LNCaP xenografts
# MEASUREMENT_PARAMETERS: 1 h after injection, unblocked
MEASURED_PARAMETER: lung uptake (%ID/g)

P = C[N+](C)(Cc1cn(Cc2ccc(C(=O)NCCCC[C@H](NC(=O)N[C@@H](CCC(=O)O)C(=O)O)C(=O)O)cn2)nn1)C[B-](F)(F)F [^18F-3]
Q = O=C(O)CC[C@H](NC(=O)N[C@@H](CCCCNC(=O)c1ccc(Cn2cc(C[n+]3ccc([B-](F)(F)F)cc3)nn2)nc1)C(=O)O)C(=O)O [^18F-4]
Input line: Sorting ascending by lung uptake, which comes first: P or Q ? Write down the label of the entry you select.
Output line: P

----------
# Test system: LNCaP xenografts
# ASSAY_SUMMARY: Ex vivo biodistribution and blocking studies in mice bearing LNCaP xenografts
# MEASUREMENT_PARAMETERS: 1 h blocked (coinjection of DCFPyL 0.5 mg)
MEASURED_PARAMETER: pancreas uptake (%ID/g)

C[N+](C)(Cc1cn(Cc2ccc(C(=O)NCCCC[C@H](NC(=O)N[C@@H](CCC(=O)O)C(=O)O)C(=O)O)cc2)nn1)C[B-](F)(F)F [^18F-2] :: 0.06
C[N+](C)(Cc1cn(CC(=O)N[C@@H](CCC(=O)O)C(=O)NCCCC[C@H](NC(=O)[C@H](CCC(=O)O)NC(=O)Cn2cc(C[N+](C)(C)C[B-](F)(F)F)nn2)C(=O)NC[C@H]2CC[C@H](C(=O)N[C@@H](Cc3ccc4ccccc4c3)C(=O)NCCCC[C@H](NC(=O)N[C@@H](CCC(=O)O)C(=O)O)C(=O)O)CC2)nn1)C[B-](F)(F)F [^18F-8] :: 0.09

1 = C[N+](C)(Cc1cn(CC(=O)NC[C@H]2CC[C@H](C(=O)N[C@@H](Cc3ccc4ccccc4c3)C(=O)NCCCC[C@H](NC(=O)N[C@@H](CCC(=O)O)C(=O)O)C(=O)O)CC2)nn1)C[B-](F)(F)F [^18F-5]
2 = C[N+](C)(Cc1cn(CC(=O)NCCOCCOCCC(=O)N[C@@H](Cc2ccc3ccccc3c2)C(=O)NCCCC[C@H](NC(=O)N[C@@H](CCC(=O)O)C(=O)O)C(=O)O)nn1)C[B-](F)(F)F [^18F-7]
Input line: Given 1 and 2 , report the one with the higher recorded pancreas uptake. Write down the label of the entry you select.
Output line: 1
(1: 0.13 %ID/g, 2: 0.06 %ID/g)

----------
# Tested on: LNCaP xenografts
# ASSAY_SUMMARY: Ex vivo biodistribution and blocking studies in mice bearing LNCaP xenografts
# MEASUREMENT_PARAMETERS: 1 h blocked (coinjection of DCFPyL 0.5 mg)
MEASURED_PARAMETER: fat uptake (%ID/g)

Some entries whose results are on file:
C[N+](C)(Cc1cn(Cc2ccc(C(=O)NCCCC[C@H](NC(=O)N[C@@H](CCC(=O)O)C(=O)O)C(=O)O)cc2)nn1)C[B-](F)(F)F [^18F-2] :: 0.06
O=C(O)CC[C@H](NC(=O)N[C@@H](CCCCNC(=O)[C@H](Cc1ccc2ccccc2c1)NC(=O)[C@H]1CC[C@H](CNC(=O)Cn2cc(C[n+]3ccc([B-](F)(F)F)cc3)nn2)CC1)C(=O)O)C(=O)O [^18F-6] :: 0.06
C[N+](C)(Cc1cn(CC(=O)N[C@@H](CCC(=O)O)C(=O)NCCCC[C@H](NC(=O)[C@H](CCC(=O)O)NC(=O)Cn2cc(C[N+](C)(C)C[B-](F)(F)F)nn2)C(=O)NC[C@H]2CC[C@H](C(=O)N[C@@H](Cc3ccc4ccccc4c3)C(=O)NCCCC[C@H](NC(=O)N[C@@H](CCC(=O)O)C(=O)O)C(=O)O)CC2)nn1)C[B-](F)(F)F [^18F-8] :: 0.06
C[N+](C)(Cc1cn(Cc2ccc(C(=O)NCCCC[C@H](NC(=O)N[C@@H](CCC(=O)O)C(=O)O)C(=O)O)cn2)nn1)C[B-](F)(F)F [^18F-3] :: 0.16
C[N+](C)(Cc1ccc(C(=O)NCCCC[C@H](NC(=O)N[C@@H](CCC(=O)O)C(=O)O)C(=O)O)cc1)C[B-](F)(F)F [^18F-1] :: 0.14

P = C[N+](C)(Cc1cn(CC(=O)NCCOCCOCCC(=O)N[C@@H](Cc2ccc3ccccc3c2)C(=O)NCCCC[C@H](NC(=O)N[C@@H](CCC(=O)O)C(=O)O)C(=O)O)nn1)C[B-](F)(F)F [^18F-7]
Q = O=C(O)CC[C@H](NC(=O)N[C@@H](CCCCNC(=O)c1ccc(Cn2cc(C[n+]3ccc([B-](F)(F)F)cc3)nn2)nc1)C(=O)O)C(=O)O [^18F-4]
Input line: Given P and Q , report the one with the higher recorded fat uptake. Write down the label of the entry you select.
Output line: Q
(Q: 0.04 %ID/g, P: 0.02 %ID/g)

----------
# Test system: LNCaP xenografts
# ASSAY_SUMMARY: Ex vivo biodistribution and blocking studies in mice bearing LNCaP xenografts
# MEASUREMENT_PARAMETERS: 1 h after injection, unblocked
MEASURED_PARAMETER: T/M (tumor-to-muscle ratio)

C[N+](C)(Cc1cn(Cc2ccc(C(=O)NCCCC[C@H](NC(=O)N[C@@H](CCC(=O)O)C(=O)O)C(=O)O)cn2)nn1)C[B-](F)(F)F [^18F-3] :: 29.00
O=C(O)CC[C@H](NC(=O)N[C@@H](CCCCNC(=O)c1ccc(Cn2cc(C[n+]3ccc([B-](F)(F)F)cc3)nn2)nc1)C(=O)O)C(=O)O [^18F-4] :: 23.40
C[N+](C)(Cc1cn(CC(=O)NC[C@H]2CC[C@H](C(=O)N[C@@H](Cc3ccc4ccccc4c3)C(=O)NCCCC[C@H](NC(=O)N[C@@H](CCC(=O)O)C(=O)O)C(=O)O)CC2)nn1)C[B-](F)(F)F [^18F-5] :: 49.67
C[N+](C)(Cc1ccc(C(=O)NCCCC[C@H](NC(=O)N[C@@H](CCC(=O)O)C(=O)O)C(=O)O)cc1)C[B-](F)(F)F [^18F-1] :: 23.43
C[N+](C)(Cc1cn(CC(=O)N[C@@H](CCC(=O)O)C(=O)NCCCC[C@H](NC(=O)[C@H](CCC(=O)O)NC(=O)Cn2cc(C[N+](C)(C)C[B-](F)(F)F)nn2)C(=O)NC[C@H]2CC[C@H](C(=O)N[C@@H](Cc3ccc4ccccc4c3)C(=O)NCCCC[C@H](NC(=O)N[C@@H](CCC(=O)O)C(=O)O)C(=O)O)CC2)nn1)C[B-](F)(F)F [^18F-8] :: 67.23

1 = C[N+](C)(Cc1cn(CC(=O)NCCOCCOCCC(=O)N[C@@H](Cc2ccc3ccccc3c2)C(=O)NCCCC[C@H](NC(=O)N[C@@H](CCC(=O)O)C(=O)O)C(=O)O)nn1)C[B-](F)(F)F [^18F-7]
2 = C[N+](C)(Cc1cn(Cc2ccc(C(=O)NCCCC[C@H](NC(=O)N[C@@H](CCC(=O)O)C(=O)O)C(=O)O)cc2)nn1)C[B-](F)(F)F [^18F-2]
3 = O=C(O)CC[C@H](NC(=O)N[C@@H](CCCCNC(=O)[C@H](Cc1ccc2ccccc2c1)NC(=O)[C@H]1CC[C@H](CNC(=O)Cn2cc(C[n+]3ccc([B-](F)(F)F)cc3)nn2)CC1)C(=O)O)C(=O)O [^18F-6]
Input line: Would you mind ranking these compounds by ascending T/M (tumor-to-muscle ratio)? Output spec: a listing of the labels in the requested order.
Output line: 2, 3, 1
(2: 37.30, 3: 72.20, 1: 117.13)
